TARGET_OR_TEST_SYSTEM: T1, EBOV VLP (Ebola virus (EBOV), UniProt Q05320 33-676)
T1 sequence: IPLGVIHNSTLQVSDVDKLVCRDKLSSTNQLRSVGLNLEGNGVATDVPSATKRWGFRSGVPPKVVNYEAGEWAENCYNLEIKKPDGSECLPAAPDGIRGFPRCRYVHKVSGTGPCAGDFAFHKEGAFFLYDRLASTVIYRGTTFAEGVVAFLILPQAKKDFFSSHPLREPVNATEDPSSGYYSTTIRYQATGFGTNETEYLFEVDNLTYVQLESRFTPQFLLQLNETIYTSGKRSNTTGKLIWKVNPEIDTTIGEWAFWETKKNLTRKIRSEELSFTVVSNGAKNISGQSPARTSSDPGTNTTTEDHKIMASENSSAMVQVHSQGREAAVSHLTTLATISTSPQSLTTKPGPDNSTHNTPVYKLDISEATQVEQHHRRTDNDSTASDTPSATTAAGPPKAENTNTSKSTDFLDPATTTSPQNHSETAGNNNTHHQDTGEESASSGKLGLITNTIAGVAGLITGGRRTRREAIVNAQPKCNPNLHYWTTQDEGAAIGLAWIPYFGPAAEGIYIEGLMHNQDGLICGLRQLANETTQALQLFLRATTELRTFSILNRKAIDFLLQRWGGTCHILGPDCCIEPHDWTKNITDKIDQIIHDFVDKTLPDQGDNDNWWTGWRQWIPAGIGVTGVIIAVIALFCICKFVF
EXPERIMENT_SUMMARY: ELISA
Quick list: EC50 per entry.
Report the figure in nM without appending any unit label.

FVM41 (antibody, V domains shown) VH: EVQLVQSGAEVKRPGESLKISCKTSGYSFTDTWISWVRQMPGKGLEWMGSIYPGDSETKYNPSFQGHVTISADKSVTTTYLKWSSLKASDTATYYCVKGSETWGQGVLVTVSS VL: ETVVTQPASLSASPGASASLTCTFSGGINVAGYNILWYQQKAGSPPRYLLRYKSDSTKDQGSGVPSRFSGSKDASANTGILRISGLQSEDEADYYCAIGHSSGVLFGGGTRLTVL; 0.36
FVM31 (antibody, V domains shown) VH: QVQLVQSGAEVKRPGESLTISCKTSGYSFTDSWVAWVRQMPGKGLEWLGSIYPGDSDARYNPSFQGHVTISADTSVTTTYLKWSSLKASDTATYYCVKGSETWGQGVLVTVSS VL: KPMLTQPASLSASPGASASLTCTFSGGINVAGYNILWYQQKAGSPPRYLLRYKSDSTKDQGSGVPSRFSGSKDASANTGILRISGLQSEDEADYYCAIGHSSGWIFGGGTRLTVL; 0.32
FVM13 (antibody, V domains shown) VH: EVQLVQSGAEVKRPGESLKISCKTSGYTFTSSWISWVRQMPGKGLEWLGSIYPGDSDTRYNPSFQGHVTISADTSIITTHLQWSSLKASDTATYYCVKGSETWGQGVLVTVSS VL: KPMLTQPTSLSASPGASASLTCTFSGGINVAGYNILWYQQKAGSPPRYLLRYKSDSTKDQGSGVPSRFSGSKDASANTGILRISGLQSEDEADYYCAIGHSSGWIFGGGTRLTVL; 0.198

# input Consider the binder FVM20 (antibody, V domains shown) VH: EVQLVESGAEVKRPGESLTISCKTSGYSFTGSWISWVRQMPGKGLEWLGSIYPGDSETKYNPSFQGHVTISADKSVTTTYLKWSSLKASDTATYYCVKGSETWGQGVLVTVSS VL: NFMLTQSASLSASPGASASLTCTFSGGINVAGYHIFWYQQNPGSPPRYLLRYKSDSEKDQGSGVPSRFSGSKDASANTGILRISGLQSEDEADYYCAIGHSSGWIFGGGTRLTVL . State its measured EC50.
# output 1.29

# input Give the reported EC50 for this binder. FVM25 (antibody, V domains shown) VH: EVQLVHSGAEVKRPGESLTISCKTSGYTFTDYWIAWVRQMPGKGLEWMASIYPDDSDTRYNPSFQGHVTISADKSISTTYLQWSSLRASDTATYYCVKGSETWGQGVLVTVSS VL: QLVLTQPASLSASPGTSASLTCTFSGGINVAGYNILWYQQKPGSPPRFLLRYKSDSDNVQGSGVPSHFSGSKDASTNTGILRISGLQSEDEADYYCAIGHSSGWVFGGGTRLTVL
# output 0.473
